Assay: effects on gastric ulcer formation in rats (Experimental Example 3)
Parameters: species or system male Donryu rats
Settings: rat, in vivo; oral, stomach examined six hours later; read-out: gastric ulcer formation in rats
experimentalReadout: TD50 at 6 h (mg/kg)

>>> quantitativereadout("COc1ccc2c(c1)c(CC(=O)O)c(C)n2C(=O)c1ccc(Cl)cc1 [indomethacin, reference compound]")
10

---

Attribute: pIC50
Biological target: cyclooxygenase-1 (COX-1) (Ovis aries)
Sequence (P05979 25-600): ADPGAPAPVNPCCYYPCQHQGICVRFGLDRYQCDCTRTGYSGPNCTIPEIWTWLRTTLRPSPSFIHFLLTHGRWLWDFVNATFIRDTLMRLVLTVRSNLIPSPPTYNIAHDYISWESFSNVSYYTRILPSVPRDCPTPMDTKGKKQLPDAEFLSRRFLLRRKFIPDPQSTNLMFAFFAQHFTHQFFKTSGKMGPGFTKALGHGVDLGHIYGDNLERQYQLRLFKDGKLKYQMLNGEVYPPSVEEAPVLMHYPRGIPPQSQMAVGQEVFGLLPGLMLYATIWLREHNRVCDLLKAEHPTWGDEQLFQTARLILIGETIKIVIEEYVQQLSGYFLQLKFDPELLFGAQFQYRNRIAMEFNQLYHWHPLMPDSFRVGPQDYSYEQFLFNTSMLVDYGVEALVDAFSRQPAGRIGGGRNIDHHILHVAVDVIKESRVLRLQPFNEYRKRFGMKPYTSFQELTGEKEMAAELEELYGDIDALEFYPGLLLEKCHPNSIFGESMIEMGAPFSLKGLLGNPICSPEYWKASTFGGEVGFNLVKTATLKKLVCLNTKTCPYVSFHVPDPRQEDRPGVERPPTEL
pIC50: −log10 of the molar value.
experimentalReadout: pIC50

>>> quantitativereadout("Cc1nc(C2CCCCCC2)c(-c2ccc(S(C)(=O)=O)cc2)o1")
5.70
>>> quantitativereadout("Cc1nc(-c2ccc(C)s2)c(-c2ccc(S(C)(=O)=O)cc2)o1")
4.30

---

Quick reference: pIC50 of the listed items.
Target: cyclooxygenase-2 (COX-2) (Ovis aries)
Sequence (P79208 17-603): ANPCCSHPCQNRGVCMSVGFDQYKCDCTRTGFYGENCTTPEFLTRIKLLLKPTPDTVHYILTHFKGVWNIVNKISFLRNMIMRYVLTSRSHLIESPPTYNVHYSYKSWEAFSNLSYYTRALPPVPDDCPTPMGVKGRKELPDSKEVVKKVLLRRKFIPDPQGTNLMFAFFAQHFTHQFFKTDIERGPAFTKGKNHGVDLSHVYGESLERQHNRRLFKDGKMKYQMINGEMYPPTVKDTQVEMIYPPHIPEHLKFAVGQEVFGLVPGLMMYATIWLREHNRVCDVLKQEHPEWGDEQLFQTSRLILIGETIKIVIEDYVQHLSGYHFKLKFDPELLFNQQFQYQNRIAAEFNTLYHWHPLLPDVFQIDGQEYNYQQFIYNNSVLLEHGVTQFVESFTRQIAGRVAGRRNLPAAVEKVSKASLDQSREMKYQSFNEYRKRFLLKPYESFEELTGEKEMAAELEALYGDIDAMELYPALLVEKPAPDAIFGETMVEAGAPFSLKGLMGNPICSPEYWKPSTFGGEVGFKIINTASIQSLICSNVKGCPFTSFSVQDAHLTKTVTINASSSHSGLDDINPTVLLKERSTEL
pIC50: −log10 of the molar value.
experimentalReadout: pIC50

>>> quantitativereadout("CC1=CCC(c2nc(C)oc2-c2ccc(S(C)(=O)=O)cc2)CC1 (centres unmarked)")
5.00
>>> quantitativereadout("Cc1nc(-c2ccc(C)s2)c(-c2ccc(S(C)(=O)=O)cc2)o1")
6.40
>>> quantitativereadout("Cc1nc(C2CCC(C)CC2)c(-c2ccc(S(C)(=O)=O)cc2)o1 (centres unmarked)")
5.40
>>> quantitativereadout("Cc1nc(-c2ccc(Cl)s2)c(-c2ccc(S(C)(=O)=O)cc2)o1")
6.70
>>> quantitativereadout("Cc1nc(C2CCCCC2)c(-c2ccc(S(N)(=O)=O)cc2)o1")
5.82
